Test system: K4 kissing-loop RNA reporter
experimental.details: apparent KD of K4 kissing-loop reporter; higher = weaker reporter binding
assay.conditions: Eterna round: R107; input ligand: tryptophan 2.4 mM
Each entry below lists one item and its recorded apparent KD of K4 kissing-loop reporter value.
Write the number in nM without appending the unit.

1) GUAGACAGACUGCGGGCCUAGUCUACAGACUAGGAUAUCAGGAAACUGAGAAGGAGUCUAGUUGCAGUGAUGUUGCAAGAAUAAU [KL-SSFMN-A26] :: 78.4
2) AAGAAGAAUGGAAGGAGCGAGCAGAUAUAACCAGUGAUGUUGGAAAGCCUUAUUGCUUAAGCUCAGGUAGGUCGCCAAGAAAAGA [whbob_Ex_Arginine_B_2t151] :: 212

Consider now this further sequence.
input: Provide apparent KD of K4 kissing-loop reporter, recorded with K4 kissing-loop RNA reporter, of GAUCUGAACGAAAGUUCGGAUCAGUCCGAUACCAGUAUGGAUUCAUACCCUUGGCAGCGGAAAUCUGCUAUGGAGUGAUGUUCCA [Theophylline A K4 14]
output: 391

###

Quick list: apparent KD of MS2 coat protein per entry.
Test system: MS2 coat protein
experimental.details: apparent KD of MS2 coat protein; designed switch direction (-1 OFF switch, 1 ON switch): -1; higher = weaker reporter binding
assay.conditions: input ligand: FMN 200 uM
Give the number; nM is assumed, so skip it.

Example entries and their recorded answers appear below.
1. GGGCUCGGAGGAUAUACAUGAGGAUCACCCAUGUAGGGCCCGGGUAUUCCCGGGCCCUGUAGAAGGCUGGGUCU [-39, -36.1 kcal, A 19%, 0-7] (Eterna round: R97, puzzle: Exclusion 3) :: 19.7
2. AUAAUUAAUGCAGGAUAUCAGCACGAUUAGUGCUGAGAAGGGCACAUGAGGAUCACCCAUGUGAUCAAUUAAUAUUAAUAUUAU [ENG1/11-D1] (Eterna round: R96, puzzle: Exclusion NG 1) :: 279
3. CGGUUGUGAGGAUAUACAUGAGGAUCACCCAUGUCCAUCCUUUCGGUAACGAUAGAACGUAGAAGGCGCACCGU [Eternabot (L2) Solution 55] (Eterna round: R97, puzzle: Exclusion 3) :: 24.4
4. UCGCCGCCCUUGGGCGGCGACAUGAGGAUCACCCAUGUCAAGCUUUUUGCUCGUUUUAUAGCCGGCCUUGGCCGGCA [Olib_3] (Eterna round: R97, puzzle: Sensor, turn-off variant 1) :: 27.9
5. GGUUAACAUGAGGAUCACCCAUGUGAGGAUAUGUUCAGGAUGAUAAAUAGAAGAGAUAAUAGAAGGCACUUUGG [Bubbles5] (Eterna round: R97, puzzle: Exclusion 1) :: 57.6
6. ACCAUUACCACACCCUCUAUACAUGAGGAUCACCCAUGUUCUGAGGAUAUCAUCGCUCGCCGCGUUGAGAAGGCAGAGCAUUAA [Tiisri] (Eterna round: R96, puzzle: Exclusion NG 3) :: 50.8
7. AAACUGAGGCUUUGCUUUAGUCGUACAUGAGGAUCACCCAUGUAGGAUAUGGUAGGCUUUGCUUACCAGAAGGACAGAGUGAUC [JL EXNG3 1.20] (Eterna round: R96, puzzle: Exclusion NG 3) :: 80.5
8. ACAAGCGUUAAGGAUAUACUGCCCUCAUUCUCGGUAGAAGGUAACACUUGAGGAUCACCCAAGUGAAAACCUGA [Erxeesis] (Eterna round: R97, puzzle: Exclusion 6) :: 10.6

input: // Input: GAAAACGAUGAGGAUAUAUGAUAUCAAAGCAUCAUAGAAGGCAUCACAUGAGGAUCACCCAUGUGAUCUUCUUG [Mat - Exclusion 6 - JL Mod - D31] (Eterna round: R97, puzzle: Exclusion 6) . Output its apparent KD of MS2 coat protein only.
output: 164

###

Quick reference for apparent KD of K4 kissing-loop reporter among some sequences
Tested on: K4 kissing-loop RNA reporter;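 note: bound reporter read as fluorescence of individual clusters on recovered sequencing chips by microscopy, with normalized cluster intensities fitted with a binding model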
experimental.details: apparent KD of K4 kissing-loop reporter; higher = weaker reporter binding
assay.conditions: Eterna round: R107; input ligand: none
API: value field is a number in nM; no unit string.

input: Please indicate apparent KD of K4 kissing-loop reporter recorded for CCGCUACCCUCAGGAUAUUAAGUAUUAGUGAUGUUAGUAAACCGAUGGCGAAAGCCAUCGGUAUGUUGAGAAGGGAGGGUAGCGG [whbob_SS_FMNB__2th198]
output: 1170

input: # return recorded apparent KD of K4 kissing-loop reporter for entry GCAUGAUAGUAAGGAUAUAGAUAAUCCUUAUAUAUAUCGAGUGAUGUUCGAUGUGCCAAGGUACAUCUAGAAGGUACUGUAAGGU [Same State FMN B GF 17]
output: 257

input: Read off the recorded apparent KD of K4 kissing-loop reporter for UGUACCGAGUCAGGAUAUGGCGUCGAAAGACGAAUGCUAGUGAUGUUAGGGAUCUGCGAAAGCAGUCUAGAAGGGACUUGGUACU [FmnBS 26 G36+U68]
output: 471

###

System: MS2 coat protein
experimental.details: apparent KD of MS2 coat protein; designed switch direction (-1 OFF switch, 1 ON switch): 1; higher = weaker reporter binding
assay.conditions: input ligand: none
// reported apparent KD of MS2 coat protein for each item listed
# value in nM; strip the unit string

1. CGGGACAGACCCAACAUGAGGAUCACCCAUGUCCUCGCAGGUCAGGAUAUUAUUAGGAUCACCAGUGAGAAGGGACGGUGAACC (Eterna round: R96, puzzle: Same State NG 3) :: 373

input: Return reported apparent KD of MS2 coat protein. Input sequence: AAAAGAAACACAGGAUAUACCGCGCUUAACGCGGUAGAAGGGUGGGACAUGAGGAUCACCCAUGUGGCCUGAGCGCCAGGCCGC [Uszadi] (Eterna round: R96, puzzle: Same State NG 1)
output: 299

input: Supply apparent KD of MS2 coat protein value. Item: UUCUCAUUUACAUGAGGAUCACCCAUGUUUUUUUGUCAGAGAUAGGAUAUAGUUCUCUCGUUUUUCUAGAAGGAUCUUUUUAUU [JR_SSNG3_Sub087] (Eterna round: R96, puzzle: Same State NG 3)
output: 71.7

input: Give apparent KD of MS2 coat protein for GAGGGACAGACCAACAUGAGGAUCACCCAUGUCCUCGCAGGUCAGGAUAUUAUUAGGAUCACCAGUGAGAAGGGACGGUGAAGG (Eterna round: R96, puzzle: Same State NG 3)
output: 521

input: State, in one line, measured apparent KD of MS2 coat protein of UGGUACAUGGGAGGAUAUCUCAUGGAGACAUGAGGAUCACCCAUGUAGUUGGACCGGAAACGGUGAGAGAAGGCCCAUGUACCU [JL SSNG1 3.72] (Eterna round: R96, puzzle: Same State NG 2)
output: 59.6

input: Return value of apparent KD of MS2 coat protein for input GUUACAUGAGGAUCACCCAUGUGUGUGUGGGAGUGAGUGGCUUAGGAUAUCUAUGAUUUUAGUUGAGAGAAGGAGGAUUGCUGU [SS-NG3-LRO08] (Eterna round: R96, puzzle: Same State NG 3) , no commentary.
output: 347

input: Please give measured apparent KD of MS2 coat protein of the following entry: GCUAGGAAUAAAGCCAACAUGAGGAUCACCCAUGUAUGUUGGUAGGAUAUCGUUUGCUUUGCAAACGAGAAGGGCUAACCUAGC [JL SSNG3 1.24] (Eterna round: R96, puzzle: Same State NG 3)
output: 67.5

input: Item CACGCCUCGGUAGGAUAUGAGGUGCCAUAGGCAACAGCCUAUGGACAUGAGGAUCACCCAUGUCCUCAGAAGGGCCAGGCGUGA [Rexeorar] (Eterna round: R96, puzzle: Same State NG 2) : provide apparent KD of MS2 coat protein
output: 114

input: Please give the documented apparent KD of MS2 coat protein of GUAGCAUACCGAGGAUAUUCAUAUUACAUGAGGAUCACCCAUGUAAGGCCACAUUAGUGGCCUUGGGAGAAGGCGGAAUGCUAC [Xeonanis - 20 Mod42] (Eterna round: R96, puzzle: Same State NG 2)
output: 180

input: Please supply the value of reported apparent KD of MS2 coat protein for the item GGUAUCAGCACAGGAUAUGCUAUCCUUUGGGUAGCAGAAGGGUGGACAUGAGGAUCACCCAUGUGGGUGCCAGGGCGUGAGCCC [JL SSNG1 1.86] (Eterna round: R96, puzzle: Same State NG 1)
output: 323

input: Give apparent KD of MS2 coat protein for the following sequence: UGGUACAUGGGAGGAUAUCCUCAGGAGACAUGAGGAUCACCCAUGUAAUAUAAGCCGAAAGGCAUGGAGAAGGCCCAUGUACCU [JL SSNG1 3.81] (Eterna round: R96, puzzle: Same State NG 2)
output: 167

input: Hello, please tell me recorded apparent KD of MS2 coat protein for this one: AGCUAUUAAUCAGGAUAUAGGGACAUGAGGAUCACCCAUGUAUACAUGAUGAAAUGUGGUCACCUCUAGAAGGGAUUACUAACA [SameState NG2 #42] (Eterna round: R96, puzzle: Same State NG 2)
output: 178

input: Note down apparent KD of MS2 coat protein recorded for GUUACAUGAGGAUCACCCAUGUAUGUGUGGGAGUAAGUGUCUUAGGAUAUCUGUGAUUUAAUUUAAGAGAAGGAAGAUUGUUGU [JMF's solution 32] (Eterna round: R96, puzzle: Same State NG 3)
output: 96.1

input: Identify apparent KD of MS2 coat protein associated with the sequence GUUACAUGAGGAUCACCCAUGUAUGUGUGGGAGUAAGUGUCUUAGGAUAUCUAGUGUUUAAUUUAAGAGAAGGAAGAUUGUUGU [JMF's solution 53] (Eterna round: R96, puzzle: Same State NG 3)
output: 116

input: Using the record for GAGUGGCAGUUAGGAUAUAUAGUGAUAAUGAUAAUAGAAGGAACAGACAUGAGGAUCACCCAUGUAGGACUAAUCCAGAGAGAG [Parity 34 - Jieux - Same State NG 1] (Eterna round: R96, puzzle: Same State NG 1) , state its measured apparent KD of MS2 coat protein.
output: 28.3

input: Read the entry CUCGUAUCGGGAGGAUAUGGUGCCUUGUUGGUGCUAGAAGGUCCAACAUGAGGAUCACCCAUGUGCGAGUGGUUGAGAGACCGG [SS NG10LRO15] (Eterna round: R96, puzzle: Same State NG 1) and write its reported apparent KD of MS2 coat protein.
output: 399

input: Consider the sequence CUGAGCGAUCUAGGAUAUCACGUCGUUUAGACGUGAGAAGGAGAUCAUAACAUGAGGAUCACCCAUGUAUUACAUGAAGCUCAG [SSNG1/6-A3] (Eterna round: R96, puzzle: Same State NG 1) and give its recorded apparent KD of MS2 coat protein.
output: 19.1

input: State, in one line, measured apparent KD of MS2 coat protein of AUAUACUGGGUAGGAUAUCUAGGAUAUGGGAAAGACUAAGUCUGUAGGUCACCUAACCCAGAUGGAGAGAAGGACCCAACACAC [pwkr ssNG2 2FMN + F9.42] (Eterna round: R96, puzzle: Same State NG 2)
output: 42.6
